We begin with a simple list: items and their reported max activation.
# target-system: Nuclear receptor subfamily 1 group I member 2 (Rattus norvegicus) (UniProt Q9R1A7)
# Sequence (Q9R1A7 whole entry, looked up): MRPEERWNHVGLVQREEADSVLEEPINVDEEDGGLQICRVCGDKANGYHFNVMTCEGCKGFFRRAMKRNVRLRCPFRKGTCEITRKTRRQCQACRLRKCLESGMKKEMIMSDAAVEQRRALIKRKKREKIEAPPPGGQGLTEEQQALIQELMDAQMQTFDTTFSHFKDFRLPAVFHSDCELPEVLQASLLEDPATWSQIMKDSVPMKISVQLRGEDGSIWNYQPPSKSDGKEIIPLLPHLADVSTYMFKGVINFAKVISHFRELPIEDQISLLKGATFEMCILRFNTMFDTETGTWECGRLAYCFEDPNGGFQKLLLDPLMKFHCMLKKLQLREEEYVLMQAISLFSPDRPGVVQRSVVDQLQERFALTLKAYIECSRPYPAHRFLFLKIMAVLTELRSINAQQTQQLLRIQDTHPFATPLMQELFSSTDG
# protocol-summary: Rat pregnane X receptor (rPXR) activation by small molecules, qHTS assay (AID 1346983); also: % is scaled to controls: 0 for no effect and ±100 for the full control effect; nearly all actives have a fitted effect of over 20% in size
# reported-conditions: rPXR luciferase reporter cells, One-Glo luminescence, 24 h; stronger effect = higher value
Records with an inconclusive call do not appear. Residues, ends and D or L forms follow the SMILES beside them.
The response must be a number in % with no trailing unit.

CC1(C)S[C@@H]2[C@H](NC(=O)[C@H](N)c3ccc(O)cc3)C(=O)N2[C@H]1C(=O)O
-0.49
CC(C)[C@H](NC(=O)[C@H](CC(=O)O)NC(=O)[C@H](CCCCN)NC(=O)[C@@H](N)CCCN=C(N)N)C(=O)N[C@@H](Cc1ccc(O)cc1)C(=O)O (H-RKDVY-OH)
-1.21

Suppose we examine the compound CSCCC(N)C(=O)O (stereo unspecified) ; what max activation value has been reported?
-0.631

Check CNCCC=C1c2ccccc2CCc2ccccc21 too.
-3.34

Check Cc1ncc(C[n+]2csc(CCOP(=O)(O)O)c2C)c(N)n1 too.
-1.3

Check CCCCCCCCCCCCCCCC[n+]1ccccc1 too.
-15.5

Check C[C@@H]1O[C@@H]1P(=O)(O)O too.
-1.9

* * *

# protocol-summary: qHTS assay to identify small molecule agonists of the estrogen related receptor signaling pathway with the pleiotropic PPARgamma coactivator (PGC) (AID 1224823); also: % is scaled to controls: 0 for no effect and ±100 for the full control effect
# reported-conditions: ERR/PGC reporter cell line, luciferase agonist mode; series mostly up to 46.1 µM
Results filed as inconclusive are left out. Activity calls are given as the source filed them. Calls come from the whole dose curve; as a rule, active = well fitted activation curve with a large enough effect in the repeat runs; inconclusive = weak or mixed curves; inactive = no such curve, though single readings can be large or run the other way.
Choose one outcome from this list and give only that: 1 for active, -1 for inactive

Solved entries:
N=C(N)c1ccc(OCCCCCOc2ccc(C(=N)N)cc2)cc1 (tested in a mixture with another compound)
-1
O=c1ccn([C@@H]2O[C@H](COP(=O)(O)OP(=O)(O)O)[C@@H](O)[C@H]2O)c(=O)[nH]1
-1
Oc1ccc(-c2nc(-c3ccc(F)cc3)c(-c3ccncc3)[nH]2)cc1
-1
Cn1cc(C(F)(F)F)nc1-c1ccc(OCC(O)CNCCOc2ccc(O)c(C(N)=O)c2)cc1 (centres undefined)
-1
Clc1ccc2c(c1)N=C(N1CCNCC1)c1ccccc1N2
-1

State the result this test recorded for COc1cc(CC(=O)O)ccc1O .
-1

Check CN(CC[C@@H](Oc1ccc(C(F)(F)F)cc1)c1ccccc1)CC(=O)O too.
-1

Check C[C@]12C=CC(=O)C=C1CC[C@@H]1C2=CC[C@]2(C)[C@@H](C(=O)CN3CCN(c4cc(N5CCCC5)nc(N5CCCC5)n4)CC3)CC[C@@H]12 too.
-1

* * *

# protocol-summary: qHTS RealTime-Glo MT Cell Viability Assay in HEK293 cells - 24 hour (AID 1224886); also: nearly all actives have a fitted effect of over 50% in size
# reported-conditions: RealTime-Glo luminescence; series mostly up to 76.8 µM
# Source text: National Center for Advancing Translational Sciences [NCATS] NIH Chemical Genomics Center [NCGC] U.S. Environmental Protection Agency [EPA] National Institutes of Environmental Health Sciences [NIEHS] National Toxicology Program [NTP] U.S. Food and Drug Administration [FDA] Measure of cell viability is critical in the cell-base assay. Analysis of cell viability is necessary for the characterization of cell responses to cytotoxic drugs and environmental stress. […]
Results filed as inconclusive are left out. Calls of active or inactive are those of the source. Calls follow the shape of the dose curve; as a rule, active = well fitted cell-killing curve with a large enough effect in the repeat runs; inconclusive = weak or mixed curves, or effect the other way; inactive = flat fitted curve, though single readings scatter.
Choose one outcome from this list and give only that: active, inactive

Solved entries:
Oc1ccc2c(c1)CCC2
inactive
O=C1OC(=O)c2cc(-c3ccc4c(c3)C(=O)OC4=O)ccc21
inactive
CCCC(C)C=O (stereo not drawn)
inactive
CN1CCN(C)CC1
inactive
NCc1ccco1
inactive

State the result this test recorded for COc1cc(/C=C/C(=O)CC(=O)/C=C/c2ccc(O)c(OC)c2)ccc1O .
active

Check c1ccc2c(c1)-c1ccc3ccc4cccc5cc-2c1c3c45 too.
inactive

Check CCCCCCCC/C=C\CCCCCCCC(=O)N(CCO)CCO too.
active

Check SC1CCCCC1 too.
inactive

Check Oc1ccc(C2(c3ccc(O)c(C4CCCCC4)c3)CCCCC2)cc1C1CCCCC1 too.
active

Check CC(Cc1ccc(O)c(O)c1)C(C)Cc1ccc(O)c(O)c1 (stereo not drawn) too.
active

Check Clc1nc(C(Cl)(Cl)Cl)c(Cl)c(Cl)c1Cl too.
inactive

Check COc1c(Br)cc(Br)c(C)c1Br too.
inactive

* * *

# protocol-summary: qHTS assay to identify small molecule agonists of the estrogen related receptor (ERR) signaling pathway (AID 1224820); also: % is scaled to controls: 0 for no effect and ±100 for the full control effect
# reported-conditions: ERR reporter cell line, luciferase agonist mode; series mostly up to 46.1 µM
Results filed as inconclusive are left out. Activity calls are given as the source filed them. Calls come from the whole dose curve; as a rule, active = well fitted activation curve with a large enough effect in the repeat runs; inconclusive = weak or mixed curves; inactive = no such curve, though single readings can be large or run the other way.
attribute-measured: outcome

COc1ccccc1N1CCN(CCCCN2C(=O)c3ccccc3C2=O)CC1
inactive
C=C1C[C@@]23CC[C@H]4[C@@](C)(CCC[C@@]4(C)C(=O)OC4OC(CO)C(O)C(O)C4O)[C@@H]2CC[C@]1(OC1OC(CO)C(O)C(O)C1OC1OC(CO)C(O)C(O)C1O)C3 (stereo not given in full)
inactive
O=C(CCCCCN1CCN(c2ccccc2-c2ccccc2)CC1)NC1CCCc2ccccc21 (stereo not given)
inactive
COc1cc(/C=C(\C#N)C(=O)Nc2nnc(C(F)(F)F)s2)ccc1OCc1ccc(C(F)(F)F)cc1C(F)(F)F
inactive
COc1cc2c(CCNC(C)=O)c[nH]c2cc1O
inactive

Suppose we examine the compound COc1ccc(/C=C/c2nc(NCCCN(C)C)c3ccccc3n2)cc1 ; what outcome value has been reported?
inactive

Check COc1ccccc1CNCCCCCCNCCCCCCCCNCCCCCCNCc1ccccc1OC too.
inactive

Check NC[C@@H]1O[C@H](C23CC4CC(CC(C4)C2)C3)Cc2c1ccc(O)c2O too.
inactive

Check C=CC(N)CCC(=O)O (stereo not given) too.
inactive

Check N[C@@H](Cc1ccc(O)c(I)c1)C(=O)O too.
inactive

Check Cc1cc(Cn2cnc3c2C[C@@H](C(=O)O)N(C(=O)C(c2ccccc2)c2ccccc2)C3)ccc1N too.
inactive

Check CN(C)S(=O)(=O)c1ccc2c(c1)/C(=C/c1cc3c([nH]1)CCCC3)C(=O)N2 too.
inactive

Check CCNC(=O)[C@H]1O[C@@H](n2cnc3c(N)nc(NCCc4ccc(CCC(=O)O)cc4)nc32)[C@H](O)C1O (stereo not given in full) too.
inactive

Check Cn1c(=O)c2[nH]c(C3CCCC3)nc2n(C)c1=O too.
inactive

Check Nc1nc2c(cnn2CCc2ccccc2)c2nc(-c3ccco3)nn12 too.
inactive

Check COc1ccccc1N1CCN(CCN(C(=O)c2ccc(F)cc2)c2ccccn2)CC1 too.
inactive

Check N=C(N)SCCN too.
inactive

Check N[C@H](C(=O)O)[C@H]1C[C@@H]1C(=O)O too.
inactive

* * *

# protocol-summary: qHTS assay to identify small molecule antagonists of the androgen receptor (AR) signaling pathway using the MDA cell line - cell viability counter screen (AID 743041; also: nearly all actives have a fitted effect of over 45% in size)
# reported-conditions: MDA-kb2 viability, CellTiter-Fluor, 16 h, cells co-treated with R1881 androgen agonist; series mostly up to 70.3 µM
Records with an inconclusive call do not appear. Calls of active or inactive are those of the source. Calls come from the whole dose curve; as a rule, active = well fitted cell-killing curve with a large enough effect in the repeat runs; inconclusive = weak or mixed curves, or effect the other way; inactive = flat fitted curve, though single readings scatter.
Choose one outcome from this list and give only that: TRUE for active, FALSE for inactive

Cc1cc(Br)ccc1NC(=O)CCl
TRUE

State the result this test recorded for CCCCCCOC(=O)c1cccnc1 .
FALSE

Check CC[N+](CC)(CC)CCC(O)(c1ccccc1)C1CCCCC1 (stereo not given) too.
FALSE

Check FC(F)(F)C(F)(F)C(F)(F)C(F)(F)C(F)(F)F too.
FALSE

Check C[C@H](Cc1ccc(O)c(O)c1)[C@@H](C)Cc1ccc(O)c(O)c1 too.
FALSE

Check SC1CCCCC1 too.
FALSE

* * *

# protocol-summary: Caspase-3/7 induction in CHO-K1 cells by small molecules, qHTS cell viability counter screen (AID 1346979); also: nearly all actives have a fitted effect of over 35% in size
# reported-conditions: CellTiter-Fluor fluorescence, 17 h; series mostly up to 92.4 µM
Records with an inconclusive call do not appear. The source made the active and inactive calls. Calls come from the whole dose curve; as a rule, active = well fitted cell-killing curve with a large enough effect in the repeat runs; inconclusive = weak or mixed curves, or effect the other way; inactive = no such curve, though single readings can be large or run the other way.
Choose one outcome from this list and give only that: active, inactive

Solved entries:
CCc1c(C)cc(N)c(CC)c1N
inactive
Cc1ccc2nc(-c3ccc(N)cc3)sc2c1S(=O)(=O)O
inactive
CC1CCC(C(C)(C)O)CC1 (configuration not stated)
inactive

State the result this test recorded for [Cl][Eu]([Cl])[Cl] .
inactive

Check CC(CC(C)(C)C)CC(C)(C)CC(C)(C)C (configuration not stated) too.
inactive

Check C1=CCCC1 too.
inactive

Check Nc1cc([N+](=O)[O-])ccc1Cl too.
inactive

Check O=C1OC(=O)c2cc(-c3ccc4c(c3)C(=O)OC4=O)ccc21 too.
inactive

Check O=C1C=CC(=O)N1c1cccc(N2C(=O)C=CC2=O)c1 too.
active

Check COc1cc(/C=C/C(=O)CC(=O)/C=C/c2ccc(O)c(OC)c2)ccc1O too.
active

Check Nc1ccc(F)c([N+](=O)[O-])c1 too.
inactive

Check CCSCC too.
inactive

Check CCCCC/C=C\C=C\C(=O)OCC too.
active

Check CCc1cccc(C)c1N(C(=O)C(=O)O)C(C)COC (configuration not stated) too.
inactive

Check CCCCCCCCCC[N+](C)(CCCCCCCCCC)CCC[Si](OC)(OC)OC too.
active

Check CCCCNc1ccc(NCCCC)c2c1C(=O)c1ccccc1C2=O too.
active

Check CN1CC[C@H](c2c(O)cc(O)c3c(=O)cc(-c4ccccc4Cl)oc23)[C@H](O)C1 too.
active
